Target: human adult muscle nicotinic acetylcholine receptor αβεδ (Homo sapiens, UniProt P02708+P11230+Q04844+Q07001)
Sequence (P02708 21-457): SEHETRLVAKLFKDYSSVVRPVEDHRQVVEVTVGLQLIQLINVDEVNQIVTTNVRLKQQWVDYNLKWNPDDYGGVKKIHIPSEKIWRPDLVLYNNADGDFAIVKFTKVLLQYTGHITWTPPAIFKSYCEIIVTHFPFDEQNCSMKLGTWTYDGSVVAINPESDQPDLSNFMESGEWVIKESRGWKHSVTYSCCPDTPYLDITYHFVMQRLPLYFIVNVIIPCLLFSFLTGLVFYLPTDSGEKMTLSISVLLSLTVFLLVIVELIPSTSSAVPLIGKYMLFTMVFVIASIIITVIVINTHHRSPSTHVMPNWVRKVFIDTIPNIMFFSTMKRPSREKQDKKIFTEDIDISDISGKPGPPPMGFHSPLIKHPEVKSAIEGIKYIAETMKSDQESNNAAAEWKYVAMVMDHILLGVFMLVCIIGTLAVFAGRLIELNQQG
Sequence (P11230 24-501): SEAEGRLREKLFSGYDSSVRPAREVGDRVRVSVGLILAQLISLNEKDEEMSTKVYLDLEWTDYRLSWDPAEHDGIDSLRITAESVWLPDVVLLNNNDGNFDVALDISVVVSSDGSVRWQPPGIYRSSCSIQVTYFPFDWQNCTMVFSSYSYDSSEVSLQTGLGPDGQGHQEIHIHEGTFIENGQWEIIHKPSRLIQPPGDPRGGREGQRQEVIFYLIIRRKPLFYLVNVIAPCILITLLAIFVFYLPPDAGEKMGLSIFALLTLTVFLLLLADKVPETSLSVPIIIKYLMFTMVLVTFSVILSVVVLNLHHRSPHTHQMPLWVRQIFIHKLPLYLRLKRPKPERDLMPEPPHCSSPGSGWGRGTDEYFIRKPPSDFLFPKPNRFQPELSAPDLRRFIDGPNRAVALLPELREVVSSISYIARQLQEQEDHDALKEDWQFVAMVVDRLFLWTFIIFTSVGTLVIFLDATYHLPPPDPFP
Sequence (Q07001 22-517): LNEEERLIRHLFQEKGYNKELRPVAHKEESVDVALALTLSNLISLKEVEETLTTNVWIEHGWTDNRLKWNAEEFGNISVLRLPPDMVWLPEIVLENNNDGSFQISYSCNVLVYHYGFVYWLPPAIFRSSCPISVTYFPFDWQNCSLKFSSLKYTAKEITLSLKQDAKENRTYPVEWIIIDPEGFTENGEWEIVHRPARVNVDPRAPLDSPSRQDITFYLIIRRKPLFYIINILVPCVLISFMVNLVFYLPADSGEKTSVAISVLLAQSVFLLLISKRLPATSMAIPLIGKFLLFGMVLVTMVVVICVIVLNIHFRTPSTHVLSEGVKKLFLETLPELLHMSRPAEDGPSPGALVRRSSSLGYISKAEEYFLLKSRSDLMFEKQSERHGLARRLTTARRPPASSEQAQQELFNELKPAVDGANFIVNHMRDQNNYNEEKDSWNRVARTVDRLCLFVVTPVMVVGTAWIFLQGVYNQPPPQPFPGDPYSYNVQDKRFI
Sequence (Q04844 21-493): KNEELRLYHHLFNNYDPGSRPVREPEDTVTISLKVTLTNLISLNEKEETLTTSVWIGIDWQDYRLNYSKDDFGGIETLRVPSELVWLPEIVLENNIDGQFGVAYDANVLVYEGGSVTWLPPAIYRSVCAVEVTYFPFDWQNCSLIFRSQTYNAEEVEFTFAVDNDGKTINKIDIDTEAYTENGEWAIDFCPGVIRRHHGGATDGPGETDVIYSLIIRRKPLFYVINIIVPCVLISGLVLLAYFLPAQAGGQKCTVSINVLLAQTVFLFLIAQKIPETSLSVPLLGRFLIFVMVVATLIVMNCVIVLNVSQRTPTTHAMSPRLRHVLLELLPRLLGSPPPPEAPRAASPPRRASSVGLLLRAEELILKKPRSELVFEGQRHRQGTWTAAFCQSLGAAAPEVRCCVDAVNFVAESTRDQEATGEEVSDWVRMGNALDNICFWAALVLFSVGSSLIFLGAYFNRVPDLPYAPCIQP
Experiment: ACh-evoked currents at adult muscle nAChR in Xenopus oocytes, two-electrode voltage clamp
Conditions: read-out: IC50 of block of ACh-evoked currents
RECORDED_ENDPOINT: pIC50
Friendly reminder that pIC50 comes from taking -log10 of the concentration in mol/L.

*Q* Recorded pIC50 of CCN(CC)CCCC(C)Nc1ccnc2cc(Cl)ccc12 (stereo not shown) , please.
*A* 5.65
